biological target: purified human Cathepsin-D (Homo sapiens (Human)); test: Cathepsin-D Assay (time-resolved FRET); assay type: biochemical; details: Assay 4; Ki calculated from IC50 by Cheng-Prusoff;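 also: Europium-labelled peptide substrate with QSY7 quencher, cleavage read as 620 nm fluorescence after 30 min preincubation then 30 min reaction at 30 °C, pH 5.0, inhibition lowers signal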
Sequence (P07339 65-412): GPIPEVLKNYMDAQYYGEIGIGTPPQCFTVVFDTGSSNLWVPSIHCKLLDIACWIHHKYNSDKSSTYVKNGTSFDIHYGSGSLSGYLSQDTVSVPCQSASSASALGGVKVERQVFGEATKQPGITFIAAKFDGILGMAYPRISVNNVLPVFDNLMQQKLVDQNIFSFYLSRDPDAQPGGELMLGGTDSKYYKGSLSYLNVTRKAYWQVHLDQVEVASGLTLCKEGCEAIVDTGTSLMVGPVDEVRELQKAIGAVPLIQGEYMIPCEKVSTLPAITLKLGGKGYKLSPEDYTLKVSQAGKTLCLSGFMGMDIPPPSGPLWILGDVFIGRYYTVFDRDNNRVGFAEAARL
Kindly supply the reported log10 Ki values for the records listed here.
Hello, just confirming the data are log10 of Ki with units of nM.

Ask | If you can, please state the reported log10 Ki value of "COc1cnc2c(Nc3cnc(F)c([C@]4(C)CS(=O)(=O)[C@@](CF)(C5CC5)C(N)=N4)c3)nccc2c1" .
Reply | 2.80

Ask | Next: "C[C@@]1(c2cc(Nc3ncnc4cc(Br)cnc34)ncc2F)CS(=O)(=O)[C@@](C)(C2CC2)C(N)=N1"
Reply | 3.51

Ask | Next: "C[C@@]1(c2cc(Nc3nccc4cc(Br)cnc34)ccc2F)CS(=O)(=O)[C@@](C)(C2CC2)C(N)=N1"
Reply | 2.16

Ask | Next: "C[C@@]1(c2nc(Nc3nccc4cc(C#N)cnc34)ccc2F)CS(=O)(=O)[C@@](CF)(C2CC2)C(N)=N1"
Reply | 2.20

Ask | Next: "C[C@@]1(c2nc(Nc3nccc4cc(C#N)cnc34)ncc2F)CS(=O)(=O)[C@@](C)(C2CC2)C(N)=N1"
Reply | 2.85

Ask | Next: "C[C@@]1(c2cc(Nc3ncnc4cc(Br)cnc34)ccc2F)CS(=O)(=O)[C@@](C)(C2CC2)C(N)=N1"
Reply | 2.51

Ask | Next: "COc1cnc2c(Nc3ccc(F)c([C@]4(C)CS(=O)(=O)[C@@](C)(C5CC5)C(N)=N4)c3)ncnc2c1"
Reply | 3.33

Ask | Next: "COc1cnc2c(Nc3ccc(F)c([C@]4(C)CS(=O)(=O)[C@@](C)(C5CC5)C(N)=N4)c3)nccc2c1"
Reply | 3.22

Ask | Next: "C[C@@]1(c2cc(Nc3ccnc4cc(Cl)cnc34)ncc2F)CS(=O)(=O)[C@@](C)(C2CC2)C(N)=N1"
Reply | 2.91

Ask | Next: "COc1cnc2c(Nc3ccc(F)c([C@]4(C)CS(=O)(=O)[C@@](CF)(C5CC5)C(N)=N4)c3)nccc2c1"
Reply | 3.05

Ask | Next: "C[C@@]1(c2cc(Nc3nccc4cc(Br)cnc34)ncc2F)CS(=O)(=O)[C@@](C)(C2CC2)C(N)=N1"
Reply | 3.74

Ask | Next: "COc1cnc2c(Nc3cnc(F)c([C@]4(C)CS(=O)(=O)[C@@](C)(C5CC5)C(N)=N4)c3)nccc2c1"
Reply | 2.81

Ask | Next: "C[C@@]1(c2cc(Nc3nccc4cc(C#N)cnc34)ncc2F)CS(=O)(=O)[C@@](C)(C2CC2)C(N)=N1"
Reply | 3.82

Ask | Next: "COc1cnc2c(Nc3ccc(F)c([C@]4(C)CS(=O)(=O)[C@@](CF)(C5CC5)C(N)=N4)c3)nccc2n1"
Reply | 3.60

* * *

Kindly supply the reported log10 IC50 values for the records listed here.
molecular target: UniProt P56817; experiment: BACE-1 Cellular Assay (Aβ in HEK293-APPswe/lon cells); assay type: cell-based; conditions: 4 hours
Sequence (P56817 46-501): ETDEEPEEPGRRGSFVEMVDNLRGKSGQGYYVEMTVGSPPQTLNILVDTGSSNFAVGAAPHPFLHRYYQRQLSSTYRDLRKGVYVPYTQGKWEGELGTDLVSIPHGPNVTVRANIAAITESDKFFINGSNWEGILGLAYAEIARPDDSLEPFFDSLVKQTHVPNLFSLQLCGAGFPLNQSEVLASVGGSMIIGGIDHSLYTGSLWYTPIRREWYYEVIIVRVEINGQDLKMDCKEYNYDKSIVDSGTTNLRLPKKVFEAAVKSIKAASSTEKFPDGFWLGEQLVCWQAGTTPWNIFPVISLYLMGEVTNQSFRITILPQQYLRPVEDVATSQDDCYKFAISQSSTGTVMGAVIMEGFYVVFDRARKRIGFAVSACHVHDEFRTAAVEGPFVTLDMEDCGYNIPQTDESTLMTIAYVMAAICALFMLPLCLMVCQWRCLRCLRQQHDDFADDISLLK
Hello, just confirming the data are log10 of IC50 with units of nM.

Ask | If you can, please state the reported log10 IC50 value of CC1(C)C(=N)N[C@](C)(c2cc(Nc3noc4cc(F)cnc34)ccc2F)CS1(=O)=O [WO′426 Ex. 30b, reference compound] .
Reply | 1.91

Ask | Next: COc1cnc2c(Nc3cc([C@]4(C)CS(=O)(=O)[C@@](C)(C5CC5)C(N)=N4)c(F)cn3)ncnc2c1 [Example 19]
Reply | 2.28

Ask | Next: CC#CCOc1cnc2c(Nc3cnc(F)c([C@]4(C)CS(=O)(=O)[C@@](C)(C5CC5)C(N)=N4)c3)nccc2n1 [Example 29]
Reply | 1.48

Ask | Next: C[C@@]1(c2cc(Nc3ccnc4cccnc34)ncc2F)CS(=O)(=O)[C@@](C)(C2CC2)C(N)=N1 [Example 31]
Reply | 2.26

Ask | Next: COc1cnc2c(Nc3ccc(F)c([C@]4(C)CS(=O)(=O)[C@@](C)(C5CC5)C(N)=N4)c3)nccc2c1 [Example 14]
Reply | 1.32

Ask | Next: CC#CCOc1cnc2c(Nc3cc([C@]4(C)CS(=O)(=O)[C@@](C)(C5CC5)C(N)=N4)c(F)cn3)nccc2c1 [Example 10]
Reply | -0.60
